Biological target: GABA-A receptor; anion channel (Rattus norvegicus) (UniProt O09028+P15431+P18506+P18508+P19969+P20236+P23574+P23576+P28471+P28473+P30191+P62813+P63079+P63138+Q91ZM7+Q9ES14)
Assay: Ratio of Ki value without GABA and Ki value in the presence of GABA.
Assay type: protein-complex assay
metricName: GABA ratio
Form field (numeric): enter value without unit.

Task: Look at this compound and give its reported GABA ratio. O=c1cc(-c2ccccc2)oc2ccc(Br)cc12 [6-BROMOFLAVONE]
Result: 1.8

Further cases:
Task: Look at this compound and give its reported GABA ratio. COc1ccc2oc(-c3ccccc3)cc(=O)c2c1 [6-METHOXYFLAVONE]
Result: 1.51

Task: Look at this compound and give its reported GABA ratio. Cc1ccc2sc(-c3ccccc3)cc(=O)c2c1
Result: 1.35

Task: Look at this compound and give its reported GABA ratio. O=c1cc(-c2ccc(O)cc2)oc2cc(O)cc(O)c12 [APIGENIN]
Result: 1.03

Task: Look at this compound and give its reported GABA ratio. Cc1cccc(-c2cc(=O)c3cc(C)ccc3o2)c1
Result: 1.63

---

Molecular target: GABA-A receptor; anion channel
Assay: In vitro affinity against Benzodiazepine receptor binding to rat cortical membranes (using [3H]- flumazenil as radioligand).
metricName: pKi
For clarity, pKi is expressed as the negative log10 of concentration in mol/L.

Would you please look over these solved cases?
Task: Look at this molecule and give its reported pKi. Cc1cccc(-c2cc(=O)c3cc(C)ccc3o2)c1
Result: 7.54

Task: Look at this molecule and give its reported pKi. CCc1c(C(=O)OC)ncc2[nH]c3cc(OC)c(OC)cc3c12
Result: 8.12

Task: Look at this molecule and give its reported pKi. O=c1cc(-c2ccccc2)oc2ccccc12
Result: 5.38

Task: Look at this molecule and give its reported pKi. O=c1cc(-c2ccccc2)oc2cc(O)ccc12 [7-HYDROXYFLAVONE]
Result: 5.38

Task: Look at this molecule and give its reported pKi. COc1ccc2oc(-c3ccccc3)cc(=O)c2c1
Result: 6.24

Task: Look at this molecule and give its reported pKi. Cc1ccc2oc(-c3cccc([N+](=O)[O-])c3)cc(=O)c2c1
Result: 8.25

Task: Look at this molecule and give its reported pKi. O=c1cc(-c2ccccc2)oc2ccc(O)cc12 [6-HYDROXYFLAVONE]
Result: 6.40

Task: Look at this molecule and give its reported pKi. Cc1ccc2oc(-c3ccccc3)cc(=O)c2c1
Result: 6.90

Further cases:
Task: Look at this molecule and give its reported pKi. O=c1cc(-c2ccc([N+](=O)[O-])cc2)oc2ccc([N+](=O)[O-])cc12
Result: 4.77

Task: Look at this molecule and give its reported pKi. Cc1ccc2sc(-c3ccccc3)cc(=O)c2c1
Result: 6.51

Task: Look at this molecule and give its reported pKi. Cc1ccc2oc(-c3ccccc3[N+](=O)[O-])cc(=O)c2c1
Result: 6.00

---

Target: GABA-A receptor; anion channel (Rattus norvegicus) (UniProt O09028+P15431+P18506+P18508+P19969+P20236+P23574+P23576+P28471+P28473+P30191+P62813+P63079+P63138+Q91ZM7+Q9ES14)
Assay: Ratio of Ki value without GABA and Ki value in the presence of GABA.
Format: protein-complex assay
metricName: GABA ratio
Form field (numeric): enter value without unit.

Would you please look over these solved cases?
Task: Look at this compound and give its reported GABA ratio. Cc1ccc2oc(-c3ccccc3[N+](=O)[O-])cc(=O)c2c1
Result: 1.49

Task: Look at this compound and give its reported GABA ratio. O=c1cc(-c2ccccc2)oc2ccc3ccccc3c12
Result: 1.28

Task: Look at this compound and give its reported GABA ratio. Cc1ccc2oc(-c3ccccc3)cc(=O)c2c1
Result: 0.98

Task: Look at this compound and give its reported GABA ratio. O=c1cc(-c2cccc([N+](=O)[O-])c2)oc2ccc(Br)cc12
Result: 1.4

Task: Look at this compound and give its reported GABA ratio. O=c1cc(-c2ccccc2)oc2cc(O)cc(O)c12
Result: 0.9

Further cases:
Task: Look at this compound and give its reported GABA ratio. Cc1ccc2oc(-c3cccc([N+](=O)[O-])c3)cc(=O)c2c1[N+](=O)[O-]
Result: 1.41

Task: Look at this compound and give its reported GABA ratio. CCc1c(C(=O)OC)ncc2[nH]c3cc(OC)c(OC)cc3c12
Result: 0.57

Source: ChEMBL document CHEMBL1132447
